B1: PDLIM4 (parent)
chain: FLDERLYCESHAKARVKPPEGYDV

variants of: B1; experiment: protein stability index of a GFP-peptide fusion (GPS, HEK-293T) (PSI 1-6); higher = more stable; conditions: c terminus: a fixed tail appended;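 further: lentivirally expressed fusions sorted by FACS into six bins by GFP to DsRed ratio, PSI derived from sequencing read proportions per bin multiplied by bin number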
Listed variants paired with reported protein stability index
metric.name: protein stability index

variant.description	measurement
E9S	1.97
R5L	1.98
A14I	2.02
A12T	2.04
